System: human lung cancer strain NCI-H441
Format: cell-based
Details: NCI-H441 cells, 4 days, CellTiter-Glo; read-out: NCl-H441 IC50
Result Type: IC50 (nM)
Just the number in nM, nothing appended.

CCOC[C@H]1C(=O)N[C@@H]([C@@H](C)CC)C(=O)N(C)CC(=O)N(C)[C@H]2C/C=C\CCN(C2=O)[C@@H](Cc2ccc(C)c(F)c2)C(=O)N(C)CC(=O)N[C@@H](CCc2ccc(C(F)(F)F)c(OC)c2)C(=O)N2C[C@@H](C)C[C@H]2C(=O)NC2(CC(C)(C)C2)C(=O)N(C)[C@@H](C2CCCC2)C(=O)N(C)[C@H](C(=O)N(C)CC)CC(=O)N1C [PP2698] :: 30.4

Note to self: IC50 recorded for CCC[C@H]1C(=O)N[C@@H]([C@@H](C)CC)C(=O)N(C)CC(=O)N(C)[C@H]2C/C=C\CCN(C2=O)[C@@H](Cc2ccc(C(F)(F)F)cc2)C(=O)N(C)CC(=O)N[C@@H](CCc2ccc(C3CC3)c(Cl)c2)C(=O)N2C[C@H](OCC)C[C@H]2C(=O)NC2(CC(C)(C)C2)C(=O)N(C)[C@@H](C2CCCC2)C(=O)N(C)[C@H](C(=O)N(C)C)CC(=O)N1C [PP2858] was 11.8

Note to self: IC50 recorded for CCC[C@H]1C(=O)N[C@@H]([C@@H](C)CC)C(=O)N(C)CC(=O)N(C)[C@H]2C/C=C\CCN(C2=O)[C@@H](Cc2ccc(C(F)(F)F)cc2)C(=O)N(C)CC(=O)N[C@@H](CCc2cc(Cl)c(C(F)F)c(Cl)c2)C(=O)N2C[C@H](OCC)C[C@H]2C(=O)NC2(CC(C)(C)C2)C(=O)N(C)[C@@H](C2CCCC2)C(=O)N(C)[C@H](C(=O)N(C)C)CC(=O)N1C [PP2865] was 37.7

---

System: human lung cancer strain NCI-H441
Format: cell-based
*1 amine or outer side, *2 acyl side, *3 side chain or, on linkers, in order; H or OH if unused. Where a SMILES comes first, the peptide text is derived from it. Bridges are numbered along the chain shown (N, C = ends). [ ]: non-standard residue; d: D form. The star is where a group is joined. hPhe(3-Cl-4-CF3) = N[C@@H](CCc1ccc(C(F)(F)F)c(Cl)c1)C(=O)O; NPrPhe(4-CF3) = CCCN[C@@H](Cc1ccc(C(F)(F)F)cc1)C(=O)O; X5 = Cc1ccc(C[C@@H](C(=O)[*:2])N(CCC(C)(C)C)[*:1])cc1; NMeGly(cPent) = CN[C@H](C(=O)O)C1CCCC1; NMeD = CN[C@@H](CC(=O)O)C(=O)O; NMeL = CN[C@@H](CC(C)C)C(=O)O; Morpholide = C1CN(*)CCO1; NMeA = CN[C@@H](C)C(=O)O; Ac5c = NC1(C(=O)O)CCCC1; Aze = O=C(O)[C@@H]1CCN1; Ac4c = NC1(C(=O)O)CCC1; Sar = CNCC(=O)O
IC50 values by entry
Just the number in nM, nothing appended.

CCCN1C(=O)CN(C)C(=O)CN(C)C(=O)[C@H]([C@@H](C)CC)NC(=O)[C@H](CC(C)C)N(C)C(=O)C[C@@H](C(=O)N2CCOCC2)NC(=O)[C@H](C2CCCC2)N(C)C(=O)C2(CCC2)NC(=O)[C@@H]2CCCN2C(=O)[C@H](CCc2ccc(C(F)(F)F)c(Cl)c2)NC(=O)CN(C)C(=O)[C@@H]1Cc1ccc(C(F)(F)F)cc1 [PP0320] ([NMeL]I[Sar][Sar][NPrPhe(4-CF3)][Sar][hPhe(3-Cl-4-CF3)]P[Ac4c][NMeGly(cPent)]D-Morpholide; lactam N-11) :: 92.3

Note to self: IC50 recorded for CC[C@H](C)[C@@H]1NC(=O)[C@H](CC(C)C)N(C)C(=O)C[C@@H](C(=O)N2CCOCC2)N(C)C(=O)[C@H](C2CCCC2)N(C)C(=O)C2(CCCC2)NC(=O)[C@@H]2CCCN2C(=O)[C@H](CCc2ccc(C(F)(F)F)c(Cl)c2)NC(=O)CN(C)C(=O)[C@H](Cc2ccc(C)cc2)N(CCC(C)(C)C)C(=O)[C@@H]2CCN2C(=O)[C@H](C)N(C)C1=O [PP0087] ([NMeL]I[NMeA][Aze][X5][Sar][hPhe(3-Cl-4-CF3)]P[Ac5c][NMeGly(cPent)][NMeD]-Morpholide; lactam N-11) was 24

Note to self: IC50 recorded for CCCOC[C@H]1C(=O)N[C@@H]([C@@H](C)CC)C(=O)N(C)CC(=O)N(C)[C@H]2C/C=C\CCN(C2=O)[C@@H](Cc2ccc(C(F)(F)F)cc2)C(=O)N(C)CC(=O)N[C@@H](CCc2cc(F)c(C(F)(F)F)c(F)c2)C(=O)N2C[C@H](OCC)C[C@H]2C(=O)NC2(CC(C)(C)C2)C(=O)N(C)[C@@H](C2CCCC2)C(=O)N(C)[C@H](C(=O)N(C)CCC)CC(=O)N1C was 6

Note to self: IC50 recorded for C=CC[C@H]1C(=O)N[C@@H]([C@@H](C)CC)C(=O)N(C)CC(=O)N(C)[C@H]2CCCCN(C2=O)[C@@H](Cc2ccc(C(F)(F)F)cc2)C(=O)N(C)CC(=O)N[C@@H](CCc2cc(F)c(C(F)(F)F)c(F)c2)C(=O)N2C[C@H](OCC)C[C@H]2C(=O)NC2(CCC2)C(=O)N(C)[C@@H](C2CCCC2)C(=O)N(C)[C@H](C(=O)N2CCOCC2)CC(=O)N1C was 4.9

Note to self: IC50 recorded for CCC[C@H]1C(=O)N[C@@H]([C@@H](C)CC)C(=O)N(C)CC(=O)N(C)[C@H]2C/C=C\CCN(C2=O)[C@@H](Cc2ccc(C(F)(F)F)cc2)C(=O)N(C)CC(=O)N[C@@H](CCc2ccc(C(F)(F)F)c(Cl)c2)C(=O)N2CC3(CC3)C[C@H]2C(=O)NC2(CC(C)(C)C2)C(=O)N(C)[C@@H](CC(C)C)C(=O)N(C)[C@H](C(=O)N(C)C)CC(=O)N1C was 31.7
